# Experimental protocol: Plasma and tissue pharmacokinetics following a single oral administration in male SD rat
# Format: in vivo
# Conditions used: heart, 10 mg/kg, 4 h post dose, read-out: 4 h Tissue:Plasma Ratio, Heart
Recorded endpoint: Kp at 4 h
// no unit, no text: just the number

Exercise: Fill in the blank: the reported Kp at 4 h of `O=C(O)C[C@H](CCN1CCCC(F)(F)C1)NC(=O)c1cc(-c2ccccc2C(F)(F)F)n(-c2nccs2)n1` is ____.
Key: 0.28

----------
# Experimental protocol: Plasma and tissue pharmacokinetics following a single oral administration in male SD rat
# Type: in vivo
# Conditions used: skin, 10 mg/kg, 4 h post dose, read-out: 4 h Conc., Skin (mean)
Recorded endpoint: concentration at 4 h (ng/g)
Record the value in ng/g, omitting the unit from your answer.

Exercise: Fill in the blank: the reported concentration at 4 h of O=C(O)C[C@H](CCN1CCCC(F)(F)C1)NC(=O)c1cc(-c2ccccc2C(F)(F)F)n(-c2nccs2)n1 [Example 22] is ____.
Key: 19.3

----------
# Experimental protocol: Plasma and tissue pharmacokinetics following a single oral administration in male SD rat
# Type: in vivo
# Conditions used: skin, 10 mg/kg, 4 h post dose, read-out: 4 h Tissue:Plasma Ratio, Skin
Recorded endpoint: Kp at 4 h
// no unit, no text: just the number

Exercise: Fill in the blank: the reported Kp at 4 h of `O=C(O)C[C@H](CCN1CCCC(F)(F)C1)NC(=O)c1cc(-c2ccccc2C(F)(F)F)n(-c2nccs2)n1` is ____.
Key: 0.19

----------
# Experimental protocol: Plasma and tissue pharmacokinetics following a single oral administration in male SD rat
# Assay type: in vivo
# Conditions used: muscle (skeletal), 10 mg/kg, 4 h post dose, read-out: 4 h Tissue:Plasma Ratio, Muscle
Recorded endpoint: Kp at 4 h
// no unit, no text: just the number

Exercise: Fill in the blank: the reported Kp at 4 h of `O=C(O)C[C@H](CCN1CCCC(F)(F)C1)NC(=O)c1cc(-c2ccccc2C(F)(F)F)n(-c2nccs2)n1` is ____.
Key: 0.07

----------
# Experimental protocol: in vitro
# Conditions used: mouse, pH 7.4
Recorded endpoint: recovery at 6 h, 1 μM

Some entries whose results are on file:
Molecule	Result
CCCC(=O)Nc1ccc(OCC(O)CNC(C)C)c(C(C)=O)c1 (stereo not drawn)	60.3%
O=C(O)C[C@H](CCN1CCCC(F)(F)C1)NC(=O)c1cc(-c2ccccc2C(F)(F)F)n(-c2nccs2)n1	92.4%

Exercise: Fill in the blank: the reported recovery at 6 h, 1 μM of CC(=O)CC(c1ccccc1)c1c(O)c2ccccc2oc1=O (stereo not drawn) is ____.
Key: 98.2%

----------
# Experimental protocol: Plasma and tissue pharmacokinetics following a single oral administration in male SD rat
# Assay type: in vivo
# Conditions used: lung, 10 mg/kg, 4 h post dose, read-out: 4 h Tissue:Plasma Ratio, Lung
Recorded endpoint: Kp at 4 h
// no unit, no text: just the number

Exercise: Fill in the blank: the reported Kp at 4 h of `O=C(O)C[C@H](CCN1CCCC(F)(F)C1)NC(=O)c1cc(-c2ccccc2C(F)(F)F)n(-c2nccs2)n1` is ____.
Key: 0.39

----------
# Experimental protocol: Plasma and tissue pharmacokinetics following a single oral administration in male SD rat
# Assay type: in vivo
# Conditions used: spleen, 10 mg/kg, 4 h post dose, read-out: 4 h Tissue:Plasma Ratio, Spleen
Recorded endpoint: Kp at 4 h
// no unit, no text: just the number

Exercise: Fill in the blank: the reported Kp at 4 h of `O=C(O)C[C@H](CCN1CCCC(F)(F)C1)NC(=O)c1cc(-c2ccccc2C(F)(F)F)n(-c2nccs2)n1` is ____.
Key: 0.14
